tested system: T1, human GIP receptor (human, UniProt P48546 22-466)
T1 sequence (looked up): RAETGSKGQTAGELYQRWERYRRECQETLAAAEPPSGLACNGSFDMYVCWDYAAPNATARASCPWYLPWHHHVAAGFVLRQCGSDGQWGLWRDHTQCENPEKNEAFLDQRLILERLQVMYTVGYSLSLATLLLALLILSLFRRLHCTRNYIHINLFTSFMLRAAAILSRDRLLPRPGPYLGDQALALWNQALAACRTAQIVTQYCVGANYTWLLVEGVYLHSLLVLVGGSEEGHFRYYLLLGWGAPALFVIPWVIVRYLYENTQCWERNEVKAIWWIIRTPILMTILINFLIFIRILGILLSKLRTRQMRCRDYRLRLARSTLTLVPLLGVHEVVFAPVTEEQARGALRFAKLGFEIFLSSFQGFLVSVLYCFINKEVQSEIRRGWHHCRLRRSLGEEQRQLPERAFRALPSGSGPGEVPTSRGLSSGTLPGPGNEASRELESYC
test method notes: cell-based or functional assay
endpoint: EC50 CreLuc hGIPR 100% hP (nM)
Answers are plain numbers, in nM.

Before answering, review these 2 worked examples.
YXEGTFTSDYSIXLEKQAQXAFVQWLIKGGPSSGASLRHYYNWLTRQRY (Aib at 2, 13, 20; K28 side chain: C20DA-gGlu-gGlu-gGlu-gGlu-gGlu-OEG-OEG; C-terminal NH2) [Compound 112] :: 0.83
YXEGTFTSDYSIXLEKQAQXAFVEWLIKGGPSSAASLRHYYNWLTRQRY (Aib at 2, 13, 20; K28 side chain: C20DA-gGlu-gGlu-gGlu-gGlu-gGlu-gGlu-eLys; C-terminal NH2) [Compound 98] :: 3.41

Next binder, EC50 CreLuc hGIPR 100% hP to be filled in.
input: Which measured EC50 CreLuc hGIPR 100% hP value corresponds to YXEGTFTSDYSIXLEKQAQXAFVQWLIKGGPEEGASLRHYYNWLTRQRY (Aib at 2, 13, 20; K28 side chain: C18DA-gGlu-gGlu-gGlu-gGlu-gGlu-AHX; C-terminal NH2) [Compound 162] ?
output: 1.61
